Experiment: Cellular Toxicity (caspase-3) NIH 3T3 (AID 666);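 note: caspase signal read after 16 h compound exposure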;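 for caspase-3 activation: 0% = DMSO basal and 100% = 100 µM tamoxifen stimulation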
Conditions: NIH 3T3 caspase-3 activation, apoptosis/toxicity; series mostly up to 92.2 µM
Description: NIH Chemical Genomics Center [NCGC] NIH Molecular Libraries Screening Centers Network [MLSCN] National Institutes of Environmental Health Sciences [NIEHS] National Toxicology Program [NTP] We have developed a 1536-well cell-based assay for quantitative high throughput screening (qHTS) against a number of cell lines to determine in vitro caspase 3/7 of small molecules. […] 8. Detection; Luminescence; Viewlux plate reader […]
Records with an inconclusive call do not appear. Calls of active or inactive are those of the source. Calls come from the whole dose curve; as a rule, active = well fitted activation curve with a large enough effect; inconclusive = small, poorly fitted or top-dose-only effect, or effect the other way; inactive = flat fitted curve, though single readings scatter.
Valid outcomes are listed here; reply with one: yes (1) (active), no (0) (inactive)

Status in this test for CC(C)(COCC1CO1)COCC1CO1 (centres undefined) ? no (0)

Tell me the recorded outcome of this test for "[N-]=[N+]=[N-]" . no (0)

Identify the outcome logged in this assay for the compound shown: "Cc1cc(-c2ccc(N)c(C)c2)ccc1N" no (0)

Lab log entry: "N#C/C=C/C#N" — outcome as called in the assay? no (0)

Test call for this compound, please: "N#CCBr" no (0)

Recorded test outcome, item c1ccc(OCC2CO2)cc1 (centres undefined) no (0)

Dear all, I need the recorded test outcome for "CN(C)N=O" , thank you. no (0)

Could you please tell me the result logged for "[O-][Cl+]O" in this assay? no (0)

Hello, I am checking results. What call was entered for c1ccc(C2CO2)cc1 (centres undefined) ? no (0)

Entry "COc1cc(-c2ccc(N)c(OC)c2)ccc1N" : call = ? no (0)

What outcome does the record of this test show for "CCCCCCCCCCCCCl" ? no (0)

What is the recorded call for this compound in the test? "CN(C)c1ccc(N(C)C)cc1" no (0)

Call for entry CCCCOCC1CO1 (centres undefined) : no (0)

Returns: the outcome recorded for "C=CCBr" in this assay. no (0)

How did this test come out for "O=[N+]([O-])c1ccccc1O" ? no (0)

Could you check what this test reported for "COc1c(C(C)(C)C)cc([N+](=O)[O-])c(C)c1[N+](=O)[O-]" ? no (0)

Check the results log: what was the call for "C=C(C)CCl" ? no (0)

Called result for "CCN(N=O)C(N)=O" no (0)

# outcome recorded in this test, key = "ClCC(Cl)CCl" no (0)

Query: recorded result category for "C=CC(=O)OCCN(C)C" in this test no (0)

Which outcome was assigned to "N#CCCCCC#N" in this test? no (0)

Record request — test call for "O=NN1CCCCC1" no (0)

Lab log entry: "O=[N+]([O-])c1cc(Cl)c(Cl)cc1Cl" — outcome as called in the assay? no (0)

How was "O=C(O)CBr" classified in this test? no (0)

What call does the record list for "C=CC#N" ? no (0)

Please share the test call associated with "ClC(Cl)C(Cl)Cl" . no (0)

Please indicate how the test categorized "Cc1ccc(N=C=O)cc1N=C=O" . no (0)

Can you look up the reported call for "C=COC(C)=O" for me? no (0)

Each compound tested received a call. Report the one for "CC(C)C#N" . no (0)

Query: recorded result category for "Cl/C=C/CCl" in this test no (0)

Record request — test call for "O=[N+]([O-])/C=C/c1ccccc1" yes (1)

Query: recorded result category for "Clc1cccc(Cl)c1Cl" in this test no (0)

Tell me the recorded outcome of this test for "CC(C)(Cl)[N+](=O)[O-]" . no (0)

Query: recorded result category for "ClC=CCl" in this test no (0)

Recorded call for CC(C)CC(C)N (centres undefined) ? no (0)

Test call, this compound: "ClP(Cl)(Cl)(Cl)Cl" no (0)

Query: recorded result category for "CCCCOC(C)=O" in this test no (0)

Please let me know the test result on file for "O=[N+]([O-])c1c(Cl)c(Cl)c(Cl)c(Cl)c1Cl" . yes (1)

In this assay, the call recorded for "Cc1ccc2c(C)cccc2c1" was what? no (0)
